Target: b-Raf (V600E) (Homo sapiens (Human), UniProt P15056, V600E)
Sequence (P15056 whole entry V600E): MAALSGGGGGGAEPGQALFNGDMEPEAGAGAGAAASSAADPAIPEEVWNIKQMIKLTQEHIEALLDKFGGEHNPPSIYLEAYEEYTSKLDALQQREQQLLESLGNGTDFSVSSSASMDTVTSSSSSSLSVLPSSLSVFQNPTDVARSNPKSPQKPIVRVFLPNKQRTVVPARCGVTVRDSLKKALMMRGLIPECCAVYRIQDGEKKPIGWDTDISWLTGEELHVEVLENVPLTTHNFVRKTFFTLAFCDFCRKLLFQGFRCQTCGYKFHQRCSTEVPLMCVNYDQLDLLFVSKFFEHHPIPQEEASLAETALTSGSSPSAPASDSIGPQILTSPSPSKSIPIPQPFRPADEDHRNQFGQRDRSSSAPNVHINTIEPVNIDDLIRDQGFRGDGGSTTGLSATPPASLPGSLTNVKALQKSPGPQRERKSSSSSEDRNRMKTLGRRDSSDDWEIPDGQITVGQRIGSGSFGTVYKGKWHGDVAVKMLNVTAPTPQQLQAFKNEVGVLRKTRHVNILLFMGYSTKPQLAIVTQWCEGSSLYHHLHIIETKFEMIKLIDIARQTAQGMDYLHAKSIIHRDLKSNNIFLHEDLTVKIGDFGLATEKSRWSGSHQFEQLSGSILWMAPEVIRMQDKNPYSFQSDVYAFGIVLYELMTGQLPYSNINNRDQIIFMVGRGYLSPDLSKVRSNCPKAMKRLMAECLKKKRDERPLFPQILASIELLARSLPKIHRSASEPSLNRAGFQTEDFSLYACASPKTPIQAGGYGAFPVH
Settings: read-out: b-Raf IC-50; Table 2; AlphaScreen, 3 hours reaction
Readout: pIC50
Field pIC50 (float): negative decimal logarithm of the concentration in molar.

Example compounds with recorded pIC50:
- Compound: "Cn1cc(-c2cc(C(=O)Nc3cccc(C(F)(F)F)c3)cnc2Cl)cc(N2CCOCC2)c1=O [Example 423]"
  pIC50: 8.22
- Compound: "Cc1ncc(NC(=O)c2ccnc(C(C)(C)F)c2)cc1-c1cncc(N2CCOCC2)c1 [Example 294]"
  pIC50: 7.97
- Compound: "Cc1ccc(NC(=O)c2cccc(C(F)F)c2)cc1-c1cc(N2CCOCC2)c(=O)n(CCC#N)c1 [Example 336]"
  pIC50: 8.26
- Compound: "Cc1ncc(NC(=O)c2ccnc(C(C)(C)C#N)c2)cc1-c1cncc(N2CCOCC2)c1 [Example 297]"
  pIC50: 7.73
- Compound: "Cn1cc(-c2cc(C(=O)Nc3cccc(C(F)(F)F)c3)ccc2Cl)cc(N2CCOCC2)c1=O [Example 425]"
  pIC50: 8.59
- Compound: "CCOc1cc(C(=O)Nc2cnc(C)c(-c3cc(N4CCOCC4)c(=O)n(C)c3)c2)ccc1F [Example 395]"
  pIC50: 8.01

Incoming: Query pIC50 on b-Raf (V600E) (Homo sapiens (Human), UniProt P15056, V600E) for Cc1ncc(NC(=O)c2ccnc(C3(C#N)CC3)c2)cc1-c1cnc(Cl)c(N2CCOCC2)c1 [Example 288]
Outgoing: 8.22

Incoming: Another compound: Cc1ccc(NC(=O)c2cnnc(C3CC3)c2)cc1-c1cc(N2CCOCC2)c(=O)n(C)c1 [Example 362]
Outgoing: 8.54

Incoming: How about this compound: Cc1ccc(NC(=O)c2ccnc(C(C)(C)O)c2)cc1-c1cnc(OC(F)F)c(N2CCOCC2)c1 [Example 226]
Outgoing: 8.72

Incoming: Item: Cc1ccc(C(=O)Nc2ccccn2)cc1-c1cc(N2CCOCC2)c(=O)n(C)c1 [Example 432]
Outgoing: 7.00

====

Target: b-Raf (V600E) (Homo sapiens (Human), UniProt P15056, V600E)
Settings: read-out: b-Raf IC-50; Table 2; AlphaScreen, 3 hours reaction
Readout: IC50

Example results:
- Compound: "Cc1ncc(NC(=O)c2cccc(C(F)(F)F)c2)cc1-c1cnc(N(C)C)c(N2CCOCC2)c1 [Example 307]"
  IC50: "0.6 nM"
- Compound: "Cc1ncc(NC(=O)c2cnnc(C(C)(C)C#N)c2)cc1-c1cnc(Cl)c(N2CCOCC2)c1 [Example 293]"
  IC50: "32.3 nM"
- Compound: "CCOc1ncc(-c2cc(NC(=O)c3ccnc(C(C)C)c3)cnc2C)cc1N1CCOCC1 [Example 252]"
  IC50: "3.1 nM"

Incoming: Record request: IC50 value, item Cc1ccc(NC(=O)c2ccnc(C(C)(C)C#N)c2)cc1-c1cnc(OC(F)F)c(N2CCOCC2)c1 [Example 223]
Outgoing: 2.2 nM

Incoming: Can you handle Cc1ncc(NC(=O)c2ccc(F)c(OC(C)C)c2)cc1-c1cc(N2CCOCC2)c(=O)n(C)c1 [Example 396] next?
Outgoing: 10.8 nM

Incoming: Try this compound next: CCOc1ncc(-c2cc(NC(=O)c3cccc(C(F)F)c3)ccc2C)cc1N1CCOCC1 [Example 231]
Outgoing: 0.4 nM

Incoming: Then this compound: Cc1ncc(NC(=O)c2cccc(C(F)(F)F)c2)cc1-c1cnc(OC2COC2)c(N2CCOCC2)c1 [Example 315]
Outgoing: 0.8 nM

Incoming: Also, CCOc1ncc(-c2cc(NC(=O)c3cnnc(C(C)(C)F)c3)ccc2C)cc1N1CCOCC1 [Example 304] please.
Outgoing: 0.9 nM

====

Biological target: b-Raf (V600E) (Homo sapiens (Human), UniProt P15056, V600E)
Conditions: read-out: b-Raf IC-50; AlphaScreen, 60 min pre-incubation, 3 hours reaction
// classify: if (IC50 < 4 nM) satisfied else not satisfied

// known answers, use as guide
- Compound: "Cn1c(N2C3CCC2COC3)cc(-c2cc(NC(=O)c3ccnc(C(C)(F)F)c3)cnc2Cl)cc1=O [Example 528]"
  Label class: "not satisfied"
- Compound: "CCNc1nc(-c2cc(NC(=O)c3ccnc(C4(C#N)CC4)c3)cnc2C)cc(N2CCOCC2)n1 [Example 728]"
  Label class: "not satisfied"
- Compound: "CCn1c(N2CCOCC2)cc(-c2cc(NC(=O)c3ccnc(C(C)C)c3)ccc2C)cc1=O [Example 522]"
  Label class: "satisfied"
- Compound: "CCOc1nnc(-c2cc(NC(=O)c3cccc(C(F)(F)F)c3)cnc2C)cc1N1CCOC[C@H]1C [Example 622]"
  Label class: "not satisfied"
- Compound: "Cc1ccc(NC(=O)c2cccc(C(F)(F)F)c2)cc1-c1cc(N2CCOCC2)nc(N2C(=O)OC[C@@H]2C)n1 [Example 783]"
  Label class: "not satisfied"

Incoming: IC50 strictly < 4 nM for this compound? CCC(F)(F)c1cc(C(=O)Nc2cnc(C)c(-c3cc(N4CCOCC4)n4nccc4n3)c2)ccn1 [Example 800]
Outgoing: satisfied

Incoming: Moving on to Cc1ncc(NC(=O)c2cc(C(F)(F)F)ccn2)cc1-c1cc(N2CCOCC2)c(OC2CCOCC2)nn1 [Example 629]
Outgoing: satisfied

====

Molecular target: b-Raf (V600E) (Homo sapiens (Human), UniProt P15056, V600E)
Conditions: read-out: b-Raf IC-50; AlphaScreen, 60 min pre-incubation, reaction 3 hours at room temperature
Readout: IC50 (nM)
Field: numeric (nM). Do not append units.

For orientation, consider the following solved cases.
- Smiles: "COc1ncc(-c2cc(NC(=O)c3cccc(C(F)(F)F)c3)nnc2C)cc1N1CCOCC1"
  Output unit: "nM"
  IC50: 4.2
- Smiles: "Cc1ccc(NC(=O)c2cnncc2C(F)F)cc1-c1cc(N2CCOCC2)nc(N2CC(O)C2)c1"
  Output unit: "nM"
  IC50: 682
- Smiles: "Cc1ccc(NC(=O)c2cc(C(C)(C)C#N)ccn2)cc1-c1cc(N2CCOCC2)c(=O)n(C)c1"
  Output unit: "nM"
  IC50: 3.64

Incoming: Returns the measured IC50 for the input molecule. Input: `Cc1ccc(NC(=O)c2ccnc(C(F)(F)F)c2)cc1-c1cc(OCCO)nc(N2CCOCC2)c1`
Outgoing: 0.73

Incoming: Check `Cc1ncc(NC(=O)c2ccnc(C(C)(F)F)c2)cc1-c1cc(N2CCOCC2)c2nccn2n1` too.
Outgoing: 0.6

Incoming: Then what about the molecule `Cc1ncc(NC(=O)c2ccnc(C(C)(F)F)c2)cc1-c1cnc(OC2CCOCC2)c(N2CCOCC2)c1` ?
Outgoing: 2.36

Incoming: Likewise for `Cc1ccc(NC(=O)c2cnnc(C(C)(C)C#N)c2)cc1-c1cc(NCCO)nc(N2CCOCC2)c1` ?
Outgoing: 7.69

====

Target: b-Raf (V600E) (Homo sapiens (Human), UniProt P15056, V600E)
Settings: read-out: b-Raf IC-50; AlphaScreen, 60 min pre-incubation, 3 hours reaction
Lab note: cut-off is 2 nM. Strictly less in IC50 is Yes. Exactly 2 nM or more is No.

# example entries with known answers
- Compound: "Cn1c(N2CCOCC2)cc(-c2cc(NC(=O)c3ccnc(C(C)(F)F)c3)cnc2Cl)cc1=O [Example 513]"
  Test target: "b-Raf (V600E) (Homo sapiens (Human), UniProt P15056, V600E)"
  Label class: "No"
- Compound: "Cc1ccc(NC(=O)c2ccnc(C(F)(F)F)c2)cc1-c1cc(N2CCOCC2)nc(N2CC(O)C2)n1 [Example 773]"
  Test target: "b-Raf (V600E) (Homo sapiens (Human), UniProt P15056, V600E)"
  Label class: "Yes"

Incoming: Given the entry Cc1ccc(NC(=O)c2ccnc(C(C)(C)C)c2)cc1-c1cc(N2CCOCC2)c2nccn2n1 [Example 845] , would its reported IC50 be below 2 nM?
Outgoing: Yes

Incoming: Now consider Cc1ccc(NC(=O)c2ccnc(C(C)(C)F)c2)cc1-c1cc(N2CCOC[C@@H]2C)c(=O)n(C)n1 [Example 662] .
Outgoing: No

Incoming: Queued: CCn1c(N2CCOCC2)cc(-c2cc(NC(=O)c3ccnc(C(F)(F)CC)c3)ccc2C)cc1=O [Example 520]
Outgoing: No

Incoming: Repeat for the following compound: CCN1CCN(c2cc(C(=O)Nc3ccc(C)c(-c4cc(N5CCOCC5)n(C)c(=O)c4)c3)cc(C(F)(F)F)c2)CC1 [Example 490]
Outgoing: No

Incoming: // query: CCOc1nnc(-c2cc(NC(=O)c3ccnc(C4CC4)c3)cnc2C)cc1N1CCOCC1 [Example 612]
Outgoing: Yes

====

The entries below come with measured pIC50 values attached.
Target: b-Raf (V600E) (Homo sapiens (Human), UniProt P15056, V600E)
Conditions: read-out: b-Raf IC-50; AlphaScreen, 60 min pre-incubation, 3 hours reaction
As a rule, pIC50 stands for the negative log10 of the concentration, concentration in M.

Solved cases (3 shown):
- Smiles: "Cc1ncc(NC(=O)c2ccnc(C(C)(C)C#N)c2)cc1-c1cc(N2CCOCC2)n(C)c(=O)c1"
  pIC50: 7.66
- Smiles: "CCNc1nc(-c2cc(NC(=O)c3cnnc(C(C)(C)C#N)c3)cnc2C)cc(N2CCOCC2)n1"
  pIC50: 7.57
- Smiles: "Cc1ccc(NC(=O)c2ccnc(C(C)(F)F)c2)cc1-c1cc(N2CCOCC2)c2nccn2n1"
  pIC50: 9.10

Now, please, on to the next molecule.
Incoming: For `CCOc1nnc(-c2cc(NC(=O)c3ccnc(C(C)(C)C#N)c3)cnc2C)cc1N1CCOC[C@H]1C` , what is its reported pIC50?
Outgoing: 7.25
